Where these numbers come from: patent US12410160B2

- assay-target: human KHK-A (Homo sapiens (Human))
- Sequence (P50053 other isoform, or with tags, fused parts or gaps): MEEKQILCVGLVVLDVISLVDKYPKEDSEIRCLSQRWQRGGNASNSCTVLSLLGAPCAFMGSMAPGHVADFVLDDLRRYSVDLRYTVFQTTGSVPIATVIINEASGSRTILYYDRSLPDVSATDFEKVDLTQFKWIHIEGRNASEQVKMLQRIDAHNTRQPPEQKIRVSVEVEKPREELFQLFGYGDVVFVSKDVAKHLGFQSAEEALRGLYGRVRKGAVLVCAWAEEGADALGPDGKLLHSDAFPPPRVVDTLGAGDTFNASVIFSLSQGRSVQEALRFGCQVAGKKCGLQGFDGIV
- protocol-notes: KHK Biochemical Assay (IC50), ADP-Glo, KHK-A
- measurement-conditions: ADP-Glo; average of at least two separate assays
pIC50: −log10 of the molar value.
Entries and their measured pIC50 follow.

{"compound": "NC1(c2ccc(-c3nc(N4CC[C@H]4C(F)F)nc4c3CCC4(F)F)cc2)CS(=O)(=O)C1 (single isomer, unassigned)", "readout-relation": "<", "pIC50": 7.00}
{"compound": "C[C@H]1[C@H](O)CN1c1nc2c(c(-c3ccc(C(N)=O)c(Cl)c3)n1)CCC2", "readout-relation": "=", "pIC50": 6.89}
{"compound": "C[C@H]1[C@H](O)CN1c1nc2c(c(-c3cccc(C(N)=O)c3)n1)CCC2", "readout-relation": "=", "pIC50": 7.06}

###

- assay-target: UniProtKB P50053
- protocol-notes: KHK Biochemical Assay (IC50), ADP-Glo, KHK-C
- measurement-conditions: ADP-Glo; average of at least two separate assays
experimental-endpoint: IC50 (nM)

{"compound": "C[C@H]1CCN1c1nc2c(c(-c3cccc(S(=N)(N)=O)c3)n1)CCC2 (some centres unmarked)", "units-label": "nM", "result-number": 23.6}
{"compound": "CC1=C(c2nc3c(c(-c4ccc(C(N)=O)cc4)n2)CCC3)CCC1=O", "units-label": "nM", "result-number": 3780}
{"compound": "C[C@H]1CCN1c1nc2c(c(-c3cnn(CCC(=O)O)c3)n1)CCC2", "units-label": "nM", "result-number": 104}
{"compound": "C[C@H]1CCN1c1nc2c(c(-c3ccc4c(c3)CN(C)C4=O)n1)CCC2", "units-label": "nM", "result-number": 66.9}
{"compound": "C[C@H]1CCN1c1nc2c(c(-c3cccc(S(=O)(=O)NCC(=O)O)c3)n1)CCC2", "units-label": "nM", "result-number": 26.3}

###

- assay-target: human KHK-C (Homo sapiens (Human))
- Sequence (P50053 whole entry): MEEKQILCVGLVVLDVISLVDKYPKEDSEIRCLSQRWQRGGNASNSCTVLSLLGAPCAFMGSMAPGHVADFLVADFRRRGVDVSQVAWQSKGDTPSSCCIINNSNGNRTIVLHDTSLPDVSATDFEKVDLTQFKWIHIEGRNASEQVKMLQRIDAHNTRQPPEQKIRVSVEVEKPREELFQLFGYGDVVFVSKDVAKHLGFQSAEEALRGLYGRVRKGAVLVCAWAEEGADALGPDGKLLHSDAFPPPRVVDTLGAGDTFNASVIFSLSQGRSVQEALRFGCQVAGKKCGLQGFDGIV
- protocol-notes: KHK Biochemical Assay (IC50), ADP-Glo, KHK-C
- measurement-conditions: average of at least two separate assays
pIC50: −log10 of the molar value.
pIC50 vs 8: at or above is Y, below is N.

{"molecule": "C[C@@H](OCc1ccccc1)[C@H]1C(O)CN1c1nc2c(c(-c3ccc(C(N)=O)cc3)n1)CCC2 (stereo partly shown) [Example 438]", "group-label": "N"}
{"molecule": "CC1(c2nc3c(c(-c4ccc(C(N)=O)cc4)n2)CCC3)CCC1 [Example 502]", "group-label": "N"}
{"molecule": "C[C@@H]1N(c2nc(-c3ccc4c(c3)COC[C@@H]4NS(C)(=O)=O)c3c(n2)C(F)(F)CC3)CC1(F)F [Example 584]", "group-label": "Y"}
{"molecule": "COc1cc(-c2nc(N3C[C@@H](O)[C@@H]3C)nc3c2CCC3(F)F)cc2c1[C@@H](NS(C)(=O)=O)CO2 [Example 530]", "group-label": "Y"}
{"molecule": "C[C@H]1[C@H](O)CN1c1nc(-c2cc3c(c(S(C)(=N)=O)c2)OCC3)c2c(n1)C(F)(F)CC2 (stereo partly shown) [Example 716]", "group-label": "Y"}
{"molecule": "C[C@H]1[C@H](O)CN1c1nc(-c2ccc3c(c2)OC[C@@H]3NS(=O)(=O)C2CC2)c2c(n1)C(F)(F)CC2 [Example 625]", "group-label": "Y"}
{"molecule": "C[C@H]1CCC(=O)N1c1nc2c(c(-c3ccc(C(N)=O)cc3)n1)CCC2 [Example 419]", "group-label": "N"}
{"molecule": "C[C@H]1CCN1c1nc2c(c(-c3ccc4c(c3)[C@]3(C[C@@H]3C(=O)O)C(=O)N4)n1)CCC2 (racemic) [Example 409]", "group-label": "N"}
{"molecule": "C[C@H]1[C@H](O)CN1c1nc(-c2ccc(OC(F)(F)F)c(S(C)(=N)=O)c2)c2c(n1)C(F)(F)CC2 (stereo partly shown) [Example 564]", "group-label": "N"}
{"molecule": "NC(=O)c1ccc(-c2nc(N3CCC34COC4)nc3c2CCC3)cc1 [Example 730]", "group-label": "N"}
{"molecule": "NC1(c2ccc(-c3nc(N4C[C@@H](O)[C@@H]4CF)nc4c3CCC4(F)F)cc2)COC1 [Example 677]", "group-label": "Y"}
